- TARGET: Proteinase-activated receptor 1 (Homo sapiens, UniProt P25116)
- Sequence (P25116 whole entry): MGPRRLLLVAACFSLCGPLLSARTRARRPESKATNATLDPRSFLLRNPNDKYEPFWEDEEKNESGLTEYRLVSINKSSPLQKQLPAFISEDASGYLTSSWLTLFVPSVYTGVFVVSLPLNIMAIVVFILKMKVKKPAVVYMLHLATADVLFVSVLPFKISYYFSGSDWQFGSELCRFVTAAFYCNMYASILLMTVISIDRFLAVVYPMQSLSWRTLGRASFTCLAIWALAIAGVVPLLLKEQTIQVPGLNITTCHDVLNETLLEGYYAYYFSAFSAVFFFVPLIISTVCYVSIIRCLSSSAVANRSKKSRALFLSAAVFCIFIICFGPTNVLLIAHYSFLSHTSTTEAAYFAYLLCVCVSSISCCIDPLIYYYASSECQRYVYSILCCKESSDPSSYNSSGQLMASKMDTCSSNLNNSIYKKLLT
- EXPERIMENTAL DETAILS: Displacement of [3H]haTRAP from PAR1
PARAMETER MEASURED: pIC50
# pIC50 is unitless: minus log10 of the molar concentration; print number only

Consider the molecule `O=C1OC[C@H]2[C@@H]1Cc1ccccc1[C@@H]2/C=C/c1ccc(-c2cccc(Cl)c2)cn1` and give its measured pIC50. 7.84

Can you look up the measured pIC50 of `O=C1OC[C@H]2[C@@H]1Cc1c(F)cccc1[C@@H]2/C=C/c1ccc(-c2cccc(Cl)c2)cn1` for me? 7.54

Which pIC50 reading was recorded for the molecule `COc1ccc2nc(/C=C/[C@H]3c4ccccc4C[C@@H]4C(=O)O[C@@H](C)[C@@H]43)ccc2c1` ? 5.04

Consider the molecule shown here: COc1ccc2nc(/C=C/[C@@H]3c4ccccc4C[C@H]4C(=O)OC[C@@H]34)ccc2c1 (racemic) What is its recorded pIC50? 7.90

Could you share which pIC50 value was measured for `O=C1OC[C@H]2[C@@H]1Cc1ccc(F)cc1[C@@H]2/C=C/c1ccc(-c2cccc(Cl)c2)cn1` ? 8.00

Consider the molecule `COc1ccc2nc(/C=C/[C@H]3c4ccccc4C[C@@H]4C(=O)O[C@H](C)[C@@H]43)ccc2c1` and give its measured pIC50. 7.05

Return reported pIC50; argument: O=C1OC[C@H]2[C@@H]1Cc1ccc(Cl)cc1[C@@H]2/C=C/c1ccc(-c2cccc(C(F)(F)F)c2)cn1 (racemic) 6.86

Data request, read-out pIC50, for `COc1ccc2nc(/C=C/[C@@H]3c4ccccc4C[C@H]4C(=O)O[C@H](C)[C@@H]34)ccc2c1` 6.24

----------
- Test system: Proteinase-activated receptor 1 (Homo sapiens)
- EXPERIMENTAL DETAILS: Dissociation half-life from PAR-1 receptor
PARAMETER MEASURED: dissociation half-life (h)
Report the value in h with no unit label.

Hello, I am looking for reported dissociation half-life with Proteinase-activated receptor 1 (Homo sapiens) for `O=C1OC[C@H]2[C@@H]1Cc1cc(F)ccc1[C@@H]2/C=C/c1ccc(-c2cccc(F)c2)cn1` . Could you help? 2.32

----------
I'd appreciate it if you could supply AUC(0-t) at 6 h values for the items below.
- EXPERIMENTAL DETAILS: AUC (0 to 6 hrs) in rat
- Assay type: ADME, organism-based
- Set-up: time < 6 hr; concentration or dose not given beside the values
- ASSAY SETUP: plasma
Note: unit ng·h/mL is implicit; provide only the numeric part.

Look up AUC(0-t) at 6 h: `O=C1OC[C@H]2[C@@H]1Cc1c(ccc(F)c1F)[C@@H]2/C=C/c1ccc(-c2cccc(Cl)c2)cn1` 264

AUC(0-t) at 6 h lookup needed for `O=C1OC[C@H]2[C@@H]1Cc1c(F)cccc1[C@@H]2/C=C/c1ccc(-c2cccc(F)c2)cn1` , thanks. 4590

Look at this molecule and give its reported AUC(0-t) at 6 h. `O=C1OC[C@H]2[C@@H]1Cc1ccc(F)cc1[C@@H]2/C=C/c1ccc(-c2cccc(F)c2)cn1` 5050

Recorded AUC(0-t) at 6 h of `O=C1OC[C@H]2[C@@H]1Cc1cc(F)ccc1[C@@H]2/C=C/c1ccc(-c2cccc(Cl)c2)cn1` , please. 3700

Fill in the blank: the reported AUC(0-t) at 6 h of `O=C1OC[C@H]2[C@@H]1Cc1cc(F)ccc1[C@@H]2/C=C/c1ccc(-c2cccc(F)c2)cn1` is ____. 3960

Given the entry `O=C1OC[C@H]2[C@@H]1Cc1ccc(F)cc1[C@@H]2/C=C/c1ccc(-c2cccc(Cl)c2)cn1` , report its measured AUC(0-t) at 6 h. 6720

----------
Could you please report measured pIC50 for the items listed next?
- TARGET: Proteinase-activated receptor 1 (Homo sapiens, UniProt P25116)
- EXPERIMENTAL DETAILS: Displacement of [3H]haTRAP from PAR1
// scale note: pIC50 = -log10(conc_M); give the bare number

I am curious: what pIC50 value has been reported for `O=C1OC[C@H]2[C@@H]1Cc1ccc(Cl)cc1[C@@H]2/C=C/c1ccc(-c2cccc(F)c2)cn1` ? 7.84

Any idea what its pIC50 is? The compound is O=C1OC[C@H]2[C@@H]1Cc1cccc(F)c1[C@@H]2/C=C/c1ccc(-c2cccc(Cl)c2)cn1 (racemic) 6.48

So what does the record say about pIC50 for `O=C1OC[C@H]2[C@@H]1Cc1ccccc1[C@@H]2/C=C/c1ccc(-c2cccc(F)c2)cn1` ? 8.12

# get_value(readout='pIC50', item= O=C1OC[C@H]2[C@@H]1Cc1ccc(Cl)cc1[C@@H]2/C=C/c1ccc(-c2cccc(Cl)c2)cn1 (racemic) ) 6.92

Return reported pIC50; argument: O=C1OC[C@H]2[C@@H]1Cc1c(Cl)cccc1[C@@H]2/C=C/c1ccc(-c2cccc(F)c2)cn1 (racemic) 7.20

Fill blank: measured pIC50 of the compound `O=C1OC[C@H]2[C@@H]1Cc1cc(F)ccc1[C@@H]2/C=C/c1ccc(-c2cccc(Cl)c2)cn1` is ____. 7.89

Fill in: pIC50 of O=C1OC[C@H]2[C@@H]1Cc1c(F)cc(F)cc1[C@@H]2/C=C/c1ccc(-c2cccc(Cl)c2)cn1 (racemic) is ___ 7.33

Item `O=C1OC[C@H]2[C@@H]1Cc1cc(F)ccc1[C@@H]2/C=C/c1ccc(-c2cccc(F)c2)cn1` has what recorded pIC50? 8.12

Given the entry `O=C1OC[C@H]2[C@@H]1Cc1ccc(F)cc1[C@@H]2/C=C/c1ccc(-c2cccc(C(F)(F)F)c2)cn1` , report its measured pIC50. 7.50

Query (compound): COc1ccc2nc(/C=C/[C@@H]3c4ccccc4C[C@H]4C(=O)OC(C)(C)[C@@H]34)ccc2c1 (racemic) ; field requested: pIC50 6.65

Look at this compound and give its reported pIC50. `COc1ccc2nc(/C=C/[C@@H]3c4ccccc4C[C@H]4C(=O)O[C@@H](C)[C@@H]34)ccc2c1` 5.50

Give its pIC50 value. Item: `O=C1OC[C@H]2[C@@H]1Cc1c(ccc(F)c1F)[C@@H]2/C=C/c1ccc(-c2cccc(F)c2)cn1` 8.15

For the compound `O=C1OC[C@H]2[C@H](/C=C/c3ccccn3)c3ccccc3C[C@@H]12` , what pIC50 is on record? 4.92

Could you share which pIC50 value was measured for O=C1OC[C@H]2[C@@H]1Cc1c(Cl)cccc1[C@@H]2/C=C/c1ccc(-c2cccc(Cl)c2)cn1 (racemic) ? 6.48

I am curious: what pIC50 value has been reported for O=C1OC[C@H]2[C@@H]1Cc1cccc(F)c1[C@@H]2/C=C/c1ccc(-c2cccc(F)c2)cn1 (racemic) ? 7.07

What value of measured pIC50 is listed for O=C1OC[C@H]2[C@@H]1Cc1c(F)cccc1[C@@H]2/C=C/c1ccc(-c2cccc(C(F)(F)F)c2)cn1 (racemic) ? 7.19
